# EXPERIMENTAL_PROTOCOL: yeast display, Sf9 membrane polyspecificity reagent, FACS + sequencing; frameworks hold sequencing errors
ATTRIBUTE_MEASURED: polyreactivity (PSR sort gate)

Sample answers from the record:
[
  {
    "SEQUENCE_RECORD": "QLQLVESGGGLVQAGGSLRLSSAASGFTFSIYAMGCYRQAPGKERELVAAINFGGGGTYYADSVKGRFTSSRDIAKNTVYLQMNSLKAEVTAVYDCAADYCYDYYSTEYDYWGQGTQVTVSS",
    "RESULT": "low polyreactivity"
  },
  {
    "SEQUENCE_RECORD": "QVQLVDSGGGLVQAGGSLRLSCAASGITFYRYTMGWYRQGPGKERELVATITSGASTSYADSVKGRFTISRDNAKNTVYLQMNCLKPEDTAVYYCAARRTRVTGRYSVYAFDYWGQGTQVTVSS",
    "RESULT": "low polyreactivity"
  },
  {
    "SEQUENCE_RECORD": "QVQLVESGGGLVQAGGSLRLICAASGFTFDFYAMGWYRQAPGKERELVATISYSGASTYYADSVKGRFTISRDNAKNTVYLEMNSLKPEVTAVYYCAAYYPTRYQYGTIWVAYNYWGQGTQVTVSS",
    "RESULT": "low polyreactivity"
  },
  {
    "SEQUENCE_RECORD": "QVQLVESGGGLVQAGGSLRLSCAASGSIFYPYTMGWYRQAPGKETEFVARITWSGGSTYYADSVKGRFTISRDNAKNTVYLQMNSLKPEDSAVYYCARVAWSESDWQKMDYWGQGTQVTVSS",
    "RESULT": "high polyreactivity"
  },
  {
    "SEQUENCE_RECORD": "QVQLVESGGGLVQAGGSLRLSCAPSGIIFAYYAKGWYRQAPVKERELVASISSGGTTKYADSVKGRFTISRDNAKNTVYLQMNSLKPEDTAVYYCAAEHRWRSWDMDYWGQGTQVTVSS",
    "RESULT": "low polyreactivity"
  }
]

# input # get_value(readout='polyreactivity (PSR sort gate)', item= QVQLVESGGGLVQAGGSLRLSCAASGSICGRYAMGWYRQAPGKDRELVAAIRWRSGSTYYADSVKGRFTISRDNAKNSVYLHMNSLKPEDTAVYYCAVQRSYVGPRQYNYWGQGTQVTVSS )
# output high polyreactivity

# input # get_value(readout='polyreactivity (PSR sort gate)', item= QVQLVESGGGLVQAGGSLRLSCAASGSIFAINAMGWYRQAPGKERELVARISWSGGRTYYADSVKVRFTISRDNAKNTVYLQMNSLKPEDTAVYYCAKRYYKSLNRDEFDSWGQGTQGTVSS )
# output high polyreactivity

# input # get_value(readout='polyreactivity (PSR sort gate)', item= QVQLVESGGGLVQAGGSLRLSCAASGFTFYRYAMGWYRKAPGKERELVAAISSSGGTTYYADSVKVRFTISRDHAKNTVYLQMNRLKPEDTAVYYCAARGWPNWGWGYDYWGQGTQVTVSS )
# output high polyreactivity

# input # get_value(readout='polyreactivity (PSR sort gate)', item= QVQLVESGGGLVQAGGSLRLSCAASGSTLSLYAMGWSRQAPGKERELVAAITSSGGTYYADSVKGRFTISRDNAKNTVYLQMNSLKPEDTADYYCARSRYRAQGKFDYWGQGTQVTVSS )
# output high polyreactivity

# input # get_value(readout='polyreactivity (PSR sort gate)', item= QVQLVESGGGLVQAGGSLRLSCAASGSTFSYYAMGWYRQAPGKEREFVAAISYSTTSTFYADSVKGRFTISRDNAKNTVYLQMNSLKPEDTAVYYCAARARYSPATYDYWGQGTQVTVSS )
# output high polyreactivity

# input # get_value(readout='polyreactivity (PSR sort gate)', item= QVQLVESGGGLVQAGGSLRLSCAASGLTLAYAMGWYRQPPGKEREFVAAISSSGGSTYYADSVKGRFTISRDNAKNTVYLQMNSLKPEDTAVYYCAARTNPGRYYYRFSGGSWGQGTQVTVSS )
# output high polyreactivity
